Values from the supplement of paper PMC11246515

What total protein half-life in vivo was measured for each of the following?
assay_name: total protein half-life in vivo (active degradation + dilution); higher = more stable protein
measurement_conditions: E. coli NCM3722 delta-clpP delta-lon delta-hslV; growth: N-lim chemostat; doubling time 6 h
Answers are plain numbers, in h.

See these solved cases before continuing.
sequence_entry=MPSIRLADLAQQLDAELHGDGDIVITGVASMQSAQTGHITFMVNPKYREHLGLCQASAVVMTQDDLPFAKSAALVVKNPYLTYARMAQILDTTPQPAQNIAPSAVIDATAKLGNNVSIGANAVIESGVELGDNVIIGAGCFVGKNSKIGAGSRLWANVTIYHEIQIGQNCLIQSGTVVGADGFGYANDRGNWVKIPQIGRVIIGDRVEIGACTTIDRGALDDTIIGNGVIIDNQCQIAHNVVIGDNTAVAGGVIMAGSLKIGRYCMIGGASVINGHMEICDKVTVTGMGMVMRPITEPGVYSSGIPLQPNKVWRKTAALVMNIDDMSKRLKSLERKVNQQD reported_property="total protein half-life in vivo" endpoint_result=6.07
sequence_entry=MAKLTLQEQLLKAGLVTSKKAAKVERTAKKSRVQAREARAAVEENKKAQLERDKQLSEQQKQAALAKEYKAQVKQLIEMNRITIANGDIGFNFTDGNLIKKIFVDKLTQAQLINGRLAIARLLVDNNSEGEYAIIPASVADKIAQRDASSIVLHSALSAEEQDEDDPYADFKVPDDLMW reported_property="total protein half-life in vivo" endpoint_result=5.34

Please turn your attention to the following entry.
Look up total protein half-life in vivo: MIPEKRIIRRIQSGGCAIHCQDCSISQLCIPFTLNEHELDQLDNIIERKKPIQKGQTLFKAGDELKSLYAIRSGTIKSYTITEQGDEQITGFHLAGDLVGFDAIGSGHHPSFAQALETSMVCEIPFETLDDLSGKMPNLRQQMMRLMSGEIKGDQDMILLLSKKNAEERLAAFIYNLSRRFAQRGFSPREFRLTMTRGDIGNYLGLTVETISRLLGRFQKSGMLAVKGKYITIENNDALAQLAGHTRNVA [P0A9E5]
4.34

---

assay_name: total protein half-life in vivo (active degradation + dilution); higher = more stable protein
measurement_conditions: wild type E. coli NCM3722; growth: P-lim chemostat; doubling time 6 h
reported_property: total protein half-life in vivo
Please answer using the number first and the unit second.

sequence_entry="MDTELLKTFLEVSRTRHFGRAAESLYLTQSAVSFRIRQLENQLGVNLFTRHRNNIRLTAAGEKLLPYAETLMSTWQAARKEVAHTSRHNEFSIGASASLWECMLNQWLGRLYQNQDAHTGLQFEARIAQRQSLVKQLHERQLDLLITTEAPKMDEFSSQLLGYFTLALYTSAPSKLKGDLNYLRLEWGPDFQQHEAGLIGADEVPILTTSSAELAQQQIAMLNGCTWLPVSWARKKGGLHTVVDSTTLSRPLYAIWLQNSDKNALIRDLLKINVLDEVY [P0A8R9]" endpoint_result="6.13 h"

Record total protein half-life in vivo for all entries; do not skip any.
1. MHPRFQTAFAQLADNLQSALEPILADKYFPALLTGEQVSSLKSATGLDEDALAFALLPLAAACARTPLSNFNVGAIARGVSGTWYFGANMEFIGATMQQTVHAEQSAISHAWLSGEKALAAITVNYTPCGHCRQFMNELNSGLDLRIHLPGREAHALRDYLPDAFGPKDLEIKTLLMDEQDHGYALTGDALSQAAIAAANRSHMPYSKSPSGVALECKDGRIFSGSYAENAAFNPTLPPLQGALILLNLKGYDYPDIQRAVLAEKADAPLIQWDATSATLKALGCHSIDRVLLA [P0ABF6]
2. MKQPGEELQETLTELDDRAVVDYLIKNPEFFIRNARAVEAIRVPHPVRGTVSLVEWHMARARNHIHVLEENMALLMEQAIANEGLFYRLLYLQRSLTAASSLDDMLMRFHRWARDLGLAGASLRLFPDRWRLGAPSNHTHLALSRQSFEPLRIQRLGQEQHYLGPLNGPELLVVLPEAKAVGSVAMSMLGSDADLGVVLFTSRDASHYQQGQGTQLLHEIALMLPELLERWIERV

1: 5.88 h; 2: 2.18 h
